Target: Bile acid receptor (Homo sapiens) (UniProt Q96RI1)
Sequence (Q96RI1 whole entry, looked up): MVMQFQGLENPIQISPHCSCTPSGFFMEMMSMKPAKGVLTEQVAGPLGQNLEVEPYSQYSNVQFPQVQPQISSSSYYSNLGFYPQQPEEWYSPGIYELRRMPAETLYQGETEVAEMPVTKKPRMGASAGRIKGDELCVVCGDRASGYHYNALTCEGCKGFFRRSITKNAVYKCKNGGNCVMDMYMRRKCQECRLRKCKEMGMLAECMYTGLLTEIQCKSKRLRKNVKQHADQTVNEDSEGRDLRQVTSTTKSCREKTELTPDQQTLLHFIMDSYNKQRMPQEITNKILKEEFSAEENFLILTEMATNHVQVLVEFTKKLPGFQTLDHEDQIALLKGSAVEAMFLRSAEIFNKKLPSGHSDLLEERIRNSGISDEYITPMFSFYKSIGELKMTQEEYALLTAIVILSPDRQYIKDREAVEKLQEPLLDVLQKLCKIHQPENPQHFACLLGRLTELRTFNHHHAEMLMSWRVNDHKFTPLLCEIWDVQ
Test: OT_FXR_FXRSRC1_0480: Odyssey Thera (OT) 8-hour HEK293T Protein-Complementation Assay for Farnesoid X receptor/SRC-1 Co-activator (AID 2283383)
Records with an inconclusive call do not appear. Activity calls are given as the source filed them. The calls were made as follows: active = hit-call score of the fitted dose curve at least 0.9, where 1 is the maximum; inconclusive = response in the unintended direction; inactive = score below 0.9.
Possible outcomes: active, inactive

>>> print(df.to_string())
                                   compound  category_label
0  CCC(C)n1c(=O)[nH]c(C)c(Br)c1=O (centres undefined)        inactive
1     COP(=S)(OC)Oc1ccc([N+](=O)[O-])c(C)c1          active
2  Cc1c(COC(=O)[C@@H]2[C@H](/C=C(\Cl)C(F)(F)F)C2(C)C)cccc1-c1ccccc1        inactive
3  CC1(C)C(C(=O)OC(C#N)c2cccc(Oc3ccccc3)c2)C1(C)C (centres undefined)          active

---

Read-out: Fatty Acid-Binding Protein 1 (FABP1), FABP1 (gene 2168)
Assay: LTEA_HepaRG_FABP1: Life Technologies and Expression Analysis (LTEA) Assay for Fatty Acid-Binding Protein 1 (FABP1) using HepaRG (AID 2283494)
Conditions: mRNA level, 48 h; actives raise or lower the signal
Active and inactive are the calls of the source. Rule for the calls: active = hit-call score of the fitted dose curve at least 0.9, where 1 is the maximum; inactive = score below 0.9.
Outcomes: yes (1) (active), no (0) (inactive)

In [3]: df
Out[3]:
                                   compound  category_label
0        CN/C(=N\[N+](=O)[O-])NCc1cnc(Cl)s1         yes (1)
1  COC(=O)N(C(=O)N1CO[C@@]2(C(=O)OC)Cc3cc(Cl)ccc3C2=N1)c1ccc(OC(F)(F)F)cc1         yes (1)
2  Cc1c(COC(=O)[C@@H]2[C@H](/C=C(\Cl)C(F)(F)F)C2(C)C)cccc1-c1ccccc1         yes (1)
3  CC(C)=CC1C(C(=O)OCc2coc(Cc3ccccc3)c2)C1(C)C (centres undefined)          no (0)

---

Read-out: Interleukin-1 alpha (IL1a), IL1A (gene 3552)
Experiment: BSK_LPS_IL1a: BioMAP Diversity Plus: LPS Assay for Interleukin-1 alpha (IL1a) Biomarker Activity (AID 2283080)
Details: primary human HUVEC with PBMC; actives raise or lower the signal
Active and inactive are the calls of the source. How the source made its calls: active means hit-call score of the fitted dose curve at least 0.9, where 1 is the maximum; inactive means score below 0.9.
readout.name: outcome

                                   compound  data_value
0            COP(=O)(OC)O/C(C)=C/C(=O)N(C)C    inactive
1              CNC(=O)N(C)c1nnc(C(C)(C)C)s1    inactive
2  CC1(C)CCC(=Cc2ccc(Cl)cc2)C1(O)Cn1cncn1 (stereo not drawn)    inactive

---

Read-out: Matrix Metallopeptidase 1 (MMP1), MMP1 (gene 4312)
Assay: BSK_BE3C_MMP1: BioMAP Diversity Plus: BE3C Assay for Matrix Metallopeptidase 1 (MMP1) Biomarker Activity (AID 2283024)
Conditions: primary human bronchial epithelial cells; actives raise or lower the signal
Calls of active or inactive are those of the source. How the source made its calls: active means hit-call score of the fitted dose curve at least 0.9, where 1 is the maximum; inactive means score below 0.9.
readout.name: AC50

>>> print(df.to_string())
                                   compound      data_value
0  CCOC(=O)C(C)OC(=O)c1cc(Oc2ccc(C(F)(F)F)cc2Cl)ccc1[N+](=O)[O-] (centres undefined)        inactive
1  Cc1c(COC(=O)[C@@H]2[C@H](/C=C(\Cl)C(F)(F)F)C2(C)C)cccc1-c1ccccc1        inactive
2      COC(=O)NC(=S)Nc1ccccc1NC(=S)NC(=O)OC        inactive
3              CNC(=O)N(C)c1nnc(C(C)(C)C)s1        inactive
4  CCCN(CC)CC1COC2(CCC(C(C)(C)C)CC2)O1 (centres undefined)        inactive
5  CC(C)=CC1C(C(=O)OCc2coc(Cc3ccccc3)c2)C1(C)C (centres undefined)        inactive
6          CCN(CC)c1nc(C)cc(OP(=S)(OC)OC)n1  20 µM (active)
7          CCOP(=S)(OCC)Oc1nc(Cl)n(C(C)C)n1        inactive
8                      COc1cc(Cl)c(OC)cc1Cl        inactive

Every entry's value here was drawn from PubChem BioAssay (EPA / NIEHS).
